target: T1, Rhesus IL-18 (rhesus (rhesus/cynomolgus)); experiment: SPR, Biacore 3000, antibody captured on Protein A, 25 C
T1 construct: also called Rhesus/Cynomolgus IL-18; rhesus/cynomolgus IL-18
pKd: −log10 of the molar value.

binder	pKd
H1L2 humanised anti-IL-18 antibody (antibody, human IgG1, kappa, V domains shown, Human IgG1 / kappa) VH: QVQLVQSGAEVKKPGASVKVSCKVSGEISTGYYFHWVRQAPGKGLEWMGRIDPEDDSTKYAERFKDRVTMTEDTSTDTAYMELSSLRSEDTAVYYCTTWRIYRDSSGRPFYVMDAWGQGTLVTVSS VL: DIQMTQSPSSVSASVGDRVTITCLASEDIYTYLTWYQQKPGKAPKLLIYGANKLQDGVPSRFSGSGSGTDYTLTISSLQPEDFATYYCLQGSKFPLTFGQGTKLEIKR	9.97
H1L3 humanised anti-IL-18 antibody (antibody, human IgG1, kappa, V domains shown, Human IgG1 / kappa) VH: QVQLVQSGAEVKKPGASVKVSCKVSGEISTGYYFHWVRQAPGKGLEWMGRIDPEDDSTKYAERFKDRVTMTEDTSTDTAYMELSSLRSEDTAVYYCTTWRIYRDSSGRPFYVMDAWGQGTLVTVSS VL: DIQMTQSPSSVSASVGDRVTITCLASEDIYTYLTWYQQKPGKAPQLLIYGANKLQDGVPSRFSGSGSGTDYTLTISSLQPEDEGDYYCLQGSKFPLTFGQGTKLEIKR	9.96
H3L1 humanised anti-IL-18 antibody (antibody, human IgG1, kappa, V domains shown, Human IgG1 / kappa) VH: QVQLVQSGAEVKKPGASVKVSCKVSGEISTGYYFHFVRRRPGKGLEWMGRIDPEDDSTKYAERFKDRVTMTADTSTDTAYMELSSLRSEDTATYFCTTWRIYRDSSGRPFYVMDAWGQGTLVTVSS VL: DIQMTQSPSSVSASVGDRVTITCLASEDIYTYLTWYQQKPGKAPKLLIYGANKLQDGVPSRFSGSGSGTDFTLTISSLQPEDFATYYCLQGSKFPLTFGQGTKLEIKR	9.83
